FYI, the data here is from patent US5480885A.

target: 5-HT1A serotoninergic receptor (Homo sapiens, UniProt P08908); experiment: binding at [^3 H] 8-OH-DPAT binding site; conditions: 5-HT1A, [^3 H]8-OH-DPAT
Sequence (P08908 whole entry): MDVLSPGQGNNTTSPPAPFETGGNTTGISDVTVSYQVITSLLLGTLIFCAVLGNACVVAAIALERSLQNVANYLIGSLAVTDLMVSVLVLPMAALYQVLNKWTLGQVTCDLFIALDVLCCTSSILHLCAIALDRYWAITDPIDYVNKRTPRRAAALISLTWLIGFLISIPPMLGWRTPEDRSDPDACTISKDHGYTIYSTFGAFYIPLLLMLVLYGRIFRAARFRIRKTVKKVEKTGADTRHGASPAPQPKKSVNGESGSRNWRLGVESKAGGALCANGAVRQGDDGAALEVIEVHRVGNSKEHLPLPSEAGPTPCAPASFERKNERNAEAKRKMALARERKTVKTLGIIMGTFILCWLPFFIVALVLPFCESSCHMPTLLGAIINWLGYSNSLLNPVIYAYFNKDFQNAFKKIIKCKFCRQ
pKi: −log10 of the molar value.
OBSERVABLE: pKi

[[record]]
chemical_string = "C#CCNC(=O)[C@@H]1C=C2c3cccc4[nH]cc(c34)C[C@H]2N(C)C1"
recorded_result = 9.00

[[record]]
chemical_string = "C#CCNC(=O)[C@@H]1C=C2c3cccc4[nH]c(Br)c(c34)C[C@H]2N(C)C1"
recorded_result = 6.69


----------
target: D2 receptor (Homo sapiens); assay: binding, [^3 H]Raclopride; conditions: in words
Sequence (P14416 whole entry): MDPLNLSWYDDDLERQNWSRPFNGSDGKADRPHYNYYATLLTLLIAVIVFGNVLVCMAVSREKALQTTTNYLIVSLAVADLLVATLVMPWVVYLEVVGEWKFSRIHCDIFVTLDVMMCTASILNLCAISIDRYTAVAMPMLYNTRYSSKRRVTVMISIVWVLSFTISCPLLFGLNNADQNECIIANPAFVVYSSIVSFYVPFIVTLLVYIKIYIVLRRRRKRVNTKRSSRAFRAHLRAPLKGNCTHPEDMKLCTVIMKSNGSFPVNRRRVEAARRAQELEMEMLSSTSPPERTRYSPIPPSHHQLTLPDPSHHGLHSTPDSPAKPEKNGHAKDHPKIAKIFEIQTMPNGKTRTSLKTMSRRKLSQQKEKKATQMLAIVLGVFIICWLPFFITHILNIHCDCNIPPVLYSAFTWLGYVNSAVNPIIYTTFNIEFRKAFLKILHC
OBSERVABLE: affinity for D2 receptors

[[record]]
chemical_string = "C#CCNC(=O)[C@@H]1C=C2c3cccc4[nH]c(Br)c(c34)C[C@H]2N(C)C1"
observable = "affinity for D2 receptors"
recorded_result = "high affinity"

[[record]]
chemical_string = "C#CCN(C)C(=O)[C@@H]1C=C2c3cccc4[nH]c(Br)c(c34)C[C@H]2N(C)C1"
observable = "affinity for D2 receptors"
recorded_result = "high affinity"

[[record]]
chemical_string = "C#CCN(C)C[C@@H]1C=C2c3cccc4[nH]cc(c34)C[C@H]2N(C)C1"
observable = "affinity for D2 receptors"
recorded_result = "high affinity"

